Experiment: First-in-human clinical study: plasma and whole blood PK of INX-315 (oral QD, ASD tablet)
Assay type: in vivo
Settings: human, plasma, oral, 100 mg, plasma, 100 mg QD, Day 1 observed, mean of first two patients; read-out: AUC
Method: All INX-315 tablets were taken at approximately the same time(s) each day. Samples will also be collected pre-dose on Cycle 1 Days 2, 8, 16, and Day 22, and pre-dose on Day 1 of each subsequent cycle. Standard non-compartmental PK parameters were estimated. […] PK parameters will be summarized descriptively by dosing cohort. […] Dose proportionality will be assessed for AUC and Cmax using a power model. […] Patients were upgraded to the 200 mg QD dose level and PK/PD plasma parameters were measured (FIG. 18A). […]

{"COMPOUND": "NS(=O)(=O)c1ccc(Nc2ncc3cc4n(c3n2)C2(CCCCC2)C(=O)NN4)cc1 [INX-315]", "AUC": "3450 ng·h/mL"}

###

assay: First-in-human clinical study: plasma and whole blood PK of INX-315 (oral QD, ASD tablet); format: in vivo; conditions: human, whole blood, oral, 100 mg, preliminary data, first two patients, 100 mg QD; read-out: t1/2 (converted)
OBSERVABLE: half-life

{"CPD_SMILES": "NS(=O)(=O)c1ccc(Nc2ncc3cc4n(c3n2)C2(CCCCC2)C(=O)NN4)cc1", "RECORDED_RESULT": "≥ 900 min"}

###

assay: First-in-human clinical study: plasma and whole blood PK of INX-315 (oral QD, ASD tablet); format: in vivo; conditions: human, plasma, oral, 100 mg, plasma, 100 mg QD, Day 15, individual patients; read-out: AUClast

{"CPD_SMILES": "NS(=O)(=O)c1ccc(Nc2ncc3cc4n(c3n2)C2(CCCCC2)C(=O)NN4)cc1", "RESULT_UNITS": "ng·h/mL", "AUC(0-t)": 7240}

###

experiment: Aqueous solubility of INX-315; type: physicochemical; details: 0.5% SIF in PBS, fassgf or other biorelevant, 0.5% SIF in PBS; read-out: Dissolved Drug Solubility

{"MOLECULE": "NS(=O)(=O)c1ccc(Nc2ncc3cc4n(c3n2)C2(CCCCC2)C(=O)NN4)cc1 [INX-315]", "solubility, µg/mL": 11}

###

experiment: Published human plasma PK of BLU-222 and PF-07104091 (estimated from 2023 ASCO presentations); assay type: in vivo; settings: human, 300 mg, read-out: C12 hr (Cmin at 12 hours)

{"CPD_SMILES": "COCc1cc(C(=O)Nc2cc([C@H]3CC[C@@H](OC(=O)NC(C)C)C3)[nH]n2)n(C)n1", "concentration at 12 h": "31.2 to 125 ng/mL"}

###

test: Aqueous solubility of INX-315; type: physicochemical; settings: 0.5% SIF in PBS, fassgf or other biorelevant, 0.5% SIF in PBS; read-out: Total Drug Solubility

{"CPD_SMILES": "NS(=O)(=O)c1ccc(Nc2ncc3cc4n(c3n2)C2(CCCCC2)C(=O)NN4)cc1", "solubility, µg/mL": 15}

###

assay: First-in-human clinical study: plasma and whole blood PK of INX-315 (oral QD, ASD tablet); format: in vivo; details: human, whole blood, oral, 300 mg, Cohort 3 (300 mg QD), Day 15, Tlast = 6 hours; read-out: AUC Whole Blood

{"MOLECULE": "NS(=O)(=O)c1ccc(Nc2ncc3cc4n(c3n2)C2(CCCCC2)C(=O)NN4)cc1 [INX-315]", "AUC": "43900 ng·h/mL"}
